Tested on: PC-3
Assay: SRB antiproliferation assay, PC-3 prostate cancer
Settings: human, PC-3 cells, 96 h
experimentalReadout: IC50 (nM)
Give bare numbers, in nM.

Ask: Missing value: IC50, PC-3, entry `COc1cc(C(=O)c2csc(Nc3ccc4[nH]ccc4c3)n2)cc(OC)c1OC` . Fill in?
Result: 16.5

* * *

What IC50 was measured for each of the following?
Test system: T47D
Assay: cell growth inhibition SRB, T47D
Format: cell-based
Conditions: Homo sapiens, N = 3, Table 14

| molecule | IC50 |
| --- | --- |
| COc1ccc(/C=C\c2cc(OC)c(OC)c(OC)c2)cc1O [CA4, reference compound] | 6 nM |

Ask: Which IC50 value belongs to COc1cc(C(=O)c2csc(Nc3ccc4[nH]ccc4c3)n2)cc(OC)c1OC [compound 55] ?
Result: 37.4 nM
